Catalogue of Hepatic index (percent variation vs hyperlipaemic controls) values
System: hyperlipaemic SD male rats
EXPERIMENT DESCRIPTION: Hypolipemizing activity, 5 days experimental model, modified Nath diet
Type: in vivo
MEASUREMENT SETUP: rat, oral, 300 mg/kg/day, index = (Liver weight/body weight) × 100
Counter-ions that a name gives are not always drawn.

Some solved entries appear below for comparison.
# MOLECULE, ASSAY RESULT
records = [
    ("CC(C)COC(=O)c1ccc(OCC(O)CSc2nc3cc(Cl)ccc3s2)cc1 (stereo not shown)", "-0,6%"),
    ("CC(C)COC(=O)c1ccc(OCC(O)CSc2nc3ccccc3o2)cc1 (stereo not shown)", "-1,7%"),
    ("CC(C)COC(=O)c1ccc(OCC(O)CSc2ncccn2)cc1 (stereo not shown) [Example 5, hydrochloride]", "-5,7%"),
]

Then this molecule:
Query: I am curious: what Hepatic index (percent variation vs hyperlipaemic controls) value has been reported for CC(C)COC(=O)c1ccc(OCC(CSc2nc3ccccc3o2)OC(=O)c2cccnc2)cc1 (stereo not shown) ?
Reply: -10,8%
